meta.source: PubChem BioAssay (NCI)

Entries and their growth inhibition
assay: NCI Yeast Anticancer Drug Screen. Data for the mlh1 rad18 strain (AID 175); conditions: S. cerevisiae mlh1 rad18 strain growth inhibition; at 50.0 µM; hits give high values
About 79,000 compounds went through this panel and 15% of them were active in at least one assay; those are over-represented in the sample as a whole.

compound	growth inhibition / %
CC1=NN(c2ccccc2)C(=O)C1C(=O)c1ccccc1 (configuration not stated)	14
CC(C)=CCc1cc(C2COc3cc4c(c(O)c3C2=O)C=CC(C)(C)O4)c(O)cc1O (configuration not stated)	88
CC(O)Cn1cnc2c1c(=O)n(C)c(=O)n2C (configuration not stated)	-30.1
O=C(O)CCCC(=O)Nn1c(Cc2ccc(Cl)cc2)n[nH]c1=O	-1.85
COC(=O)C1=CCCC2CN3CCc4c([nH]c5ccccc45)C3CC12 (configuration not stated)	18
CCCCCCCC/C=C\CCCCCCCCOC(N)=O	-17.1
O=[N+]([O-])c1ccc(-n2[nH]nnc2=S)cc1	16.1
Cc1ccc(/C=N/Nc2cnccn2)s1	-9.3
CCOC(=O)c1c(N)sc2c1CCN(Cc1ccccc1)C2	21.9
CC1(C)OC(=O)C(=Cc2c(Cl)cccc2Cl)C(=O)O1	-7.3
CCN(CC)C(C(=O)Nc1ccccc1)C(=O)Nc1ccccc1	-4.9
NC(=S)Nc1[nH]c(=S)nc2c1SC1=N/C(=C\c3ccco3)C(=O)N12	28.2
